- MEASURED_ON: GlcNAc(b1-3)Gal(b1-4)GlcNAc(b1-6)[GlcNAc(b1-3)]Gal(b1-4)GlcNAc
- PROTOCOL_SUMMARY: glycan array binding signal (z-score within array); higher = stronger binding
- COND: glycan notation: IUPAC condensed, linker removed
This excerpt belongs to a sample that is enriched for the strongest signals.
EXPERIMENTAL_ENDPOINT: glycan array binding signal (z-score)
Just the number.

Summary for this binder, LlpB (Pseudomonas fluorescens) (protein) MGSSHHHHHHSSGLVPRGSHMASSGFRIILFNSANNGTAILPPRNCLVAGQYLESPSKRYKLILEADGNLRLYDNGVPIWVADSSVPYTYVDNRPNTNLVTCFYMQGSAFLVDRVGSRTWATIGDWIDGAADRAYLQVQDDGNVVVVDGVPRWARFGFTPAALPNRGVFYPDHGTGPLPSFPVWSWTF : glycan array binding signal (z-score) is -0.837
